# MEASURED_ON: Cellular tumor antigen p53 (Homo sapiens)
# TEST_DESCRIPTION: Primary qHTS for small molecule compounds that upregulate eGFP-tagged delta133p53alpha (in N-terminal) cells. (AID 2060322);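 also: cells pre-induced with doxycycline then dosed without doxycycline; series mostly up to about 56 µM; 0% = DMSO vehicle and 100% = reference activator; nearly all actives have a fitted effect of over 75% in size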
# CONDITIONS_USED: NCI-H358 eGFP-delta133p53alpha fluorescence, 24 h; active compounds read high
Results filed as inconclusive are left out. Activity calls are given as the source filed them. Calls follow the shape of the dose curve; as a rule, active = well fitted activation curve with a large enough effect; inconclusive = small, poorly fitted or top-dose-only effect; inactive = no such curve, though single readings can be large or run the other way.
OBSERVABLE: activation

As a guide, the following entries are already answered.
{"columns": ["COMPOUND", "activation"],
 "data": [
  ["Cc1onc(-c2c(F)cccc2Cl)c1C(=O)N[C@@H]1C(=O)N2[C@@H]1SC(C)(C)[C@@H]2C(=O)O", "-1.67% (inactive)"],
  ["C/C=C(/COC(=O)/C(C)=C/C)C(=O)OC/C=C/c1ccc(OC)cc1", "0.893% (inactive)"],
  ["CC(=O)OC[C@@]12C(=O)C[C@@H](C)[C@]3(C[C@@H](c4ccoc4)OC3=O)[C@H]1CC[C@H](OC(C)=O)[C@]21CO1", "27.5% (inactive)"],
  ["CCNC(=O)c1noc(-c2cc(Cl)c(O)cc2O)c1-c1ccc(OC)cc1", "-6.68% (inactive)"]
]}

Q. Requested read-out activation, target or system Cellular tumor antigen p53 (Homo sapiens), entry C[C@@H]1CC2OC(=O)C3=C2C(CCC3O)[C@@]12C[C@@H](c1ccoc1)OC2=O (stereo partly drawn)
A. -8.4% (inactive)

Q. And then O=C(O)[C@H](Cc1c[nH]c2ccccc12)N1C(=O)c2ccccc2C1=O , what is it?
A. -29% (inactive)

Q. Now this one: O=C(O)CCc1nccc2c1[nH]c1ccccc12
A. 8.93% (inactive)

Q. And for COc1ccc2c(OC)c3ccoc3nc2c1OC ?
A. -3.05% (inactive)

Q. // same read-out, input: CC(C)n1c(=O)c(C(=O)NC2CC3CCC(C2)N3C[C@@H](O)CN(C)S(C)(=O)=O)cc2ccccc21 (stereo partly drawn)
A. -10.5% (inactive)
